I'd be grateful if you could share measured minimal effective dose for these entries.
Organism: Rattus norvegicus
Assay remarks: Minimum effective dose required for anticonflict in rat perorally
Format: functional
Condition description: po, read-out: MED
Answers are plain numbers, in mg/kg.

Look up minimal effective dose for the entries below, preserving their order.
1. COCCNCCN1C2=C(C(=O)Nc3ccccc3F)C(=O)CCN2c2ccc(F)cc21
2. CN(C)CCN1C2=C(C(=O)Nc3ccccc3F)C(=O)CCN2c2ccc(F)cc21
3. CCOCN1C2=C(C(=O)Nc3ccc(OC(=O)OC)cc3F)C(=O)CCN2c2ccc(F)cc21

1. 10
2. 3
3. 1

Look up minimal effective dose for the entries below, preserving their order.
1. NCCN1C2=C(C(=O)Nc3ccccc3F)C(=O)CCN2c2ccc(F)cc21
2. CC(=O)OCCN1C2=C(C(=O)Nc3ccccc3F)C(=O)CCN2c2ccc(F)cc21

[10, 3]

* * *

System name: GABA-A receptor; anion channel (Rattus norvegicus) (UniProt O09028+P15431+P18506+P18508+P19969+P20236+P23574+P23576+P28471+P28473+P30191+P62813+P63079+P63138+Q91ZM7+Q9ES14)
Assay remarks: Ratio of the binding in the absence and presence of GABA was determined.
Assay type: protein-complex assay
Reported metric: GABA shift
Numbers only.

Look up GABA shift for the entries below, preserving their order.
1. CCOCN1C2=C(C(=O)Nc3ccccc3F)C(=O)CCN2c2cc(F)cc(F)c21
2. CCOCN1C2=C(C(=O)Nc3ccc(C)s3)C(=O)CCN2c2ccc(F)cc21

[2.9, 2.3]

Look up GABA shift for the entries below, preserving their order.
1. O=C(Nc1ccccc1F)C1=C(O)CCn2c1nc1cc(F)ccc12
2. CN(C)/C=N/CCN1C2=C(C(=O)Nc3ccccc3F)C(=O)CCN2c2ccc(F)cc21

1: 1.8; 2: 2.1

* * *

I'd be grateful if you could share measured minimal effective dose for these entries.
Species: Rattus norvegicus
Assay remarks: Minimum effective dose required for anticonflict in rat perorally
Type: functional
Condition description: po, read-out: MED

Recorded minimal effective dose, per entry:
{"Smiles entry": "CCOCN1C2=C(C(=O)Nc3ccccc3F)C(=O)CCN2c2c1ccc(F)c2F", "minimal effective dose": "> 10 mg/kg"}
{"Smiles entry": "CCOCN1C2=C(C(=O)Nc3ccccc3F)C(=O)CCN2c2ccc(Cl)cc21", "minimal effective dose": "> 10 mg/kg"}

Now for another entry.
Record `O=C1CCN2C(=C1C(=O)Nc1ccccc1F)N(CCO)c1cc(F)ccc12` . Reported minimal effective dose: > 10 mg/kg

* * *

Species on record: Rattus norvegicus
Assay remarks: Minimum effective dose required for anticonflict in rat perorally
Assay type: functional
Condition description: po, read-out: MED
Reported metric: minimal effective dose

{"Smiles entry": "N=C(N)NCCN1C2=C(C(=O)Nc3ccccc3F)C(=O)CCN2c2ccc(F)cc21", "minimal effective dose": "> 10 mg/kg"}

Look up minimal effective dose for the entries below, preserving their order.
1. O=C1CCN2C(=C1C(=O)Nc1ccccc1F)N(CCc1ccccn1)c1cc(F)ccc12
2. O=C1CCN2C(=C1C(=O)Nc1ccccc1F)N(CCn1ccnc1)c1cc(F)ccc12
3. CCOCN1C2=C(C(=O)Nc3sccc3Cl)C(=O)CCN2c2ccc(F)cc21
4. O=C(Nc1ccccc1F)C1=C(O)CCn2c1nc1cc(F)ccc12

> 10 mg/kg
> 10 mg/kg
> 10 mg/kg
> 30 mg/kg
